Test system: HL-60(TB) leukemia
Experiment: NCI tumour cell line growth inhibition, 48 h
List of TGI values.
Note: unit µM is implicit; provide only the numeric part.

Consider the following illustrative entries.
# compound, tested system, TGI [µM]
measured = [
    ("C#CCN(Cc1ccc2nc(-c3ccccc3)c(N)nc2c1)c1cc(OC)c(OC)c(OC)c1", "HL-60(TB) leukemia", 41.4),
    ("NC(=S)N1N=C2c3ccccc3CC[C@H]2[C@@H]1c1ccc(Cl)cc1", "HL-60(TB) leukemia", 61.6),
    ("Cc1ccc(C2NC(=O)c3ccccc3N2)c(C)c1 (stereo not given)", "HL-60(TB) leukemia", 1.61),
]

Prompt: Value lookup for TGI; key = C#CC(O)/C=C/CCCCCCC#CC/C=C\CC#CCCCCCCCCC(O)C#C (stereo not given)
Completion: 3.71

Prompt: Value lookup for TGI; key = CC1(C)Cc2c(Br)c(Br)c(Br)c(OCC(O)CN3CCN(c4ccccn4)CC3)c2O1 (stereo not given)
Completion: 11.1

Prompt: Value lookup for TGI; key = "COc1ccc(-c2c3c(nc4n[nH]c(-c5ccc(Cl)cc5)c24)-c2ccccc2C(=O)C3=O)cc1"
Completion: 28.1

Numbers sourced from PubChem BioAssay (NCI).
